subjectOfTest: human recombinant HDAC6 (Homo sapiens, UniProt Q9UBN7)
Construct: purchased Calbiochem Inc. 382180
assayOverview: In vitro HDAC enzyme activity inhibition assay, HDAC6 (HDAC Fluorimetric Drug Discovery Kit)
Format: biochemical
setupConditions: HDAC6 versus HDAC1
List of HDAC6 Selectivity (fold) values.
property: HDAC6 Selectivity (fold)

• O=C(C1CCN(c2ncccn2)CC1)N(Cc1cn2ccc(-c3nnc(C(F)F)o3)cc2n1)c1ccccc1 = 76
• O=C(C1CN(C(=O)C(F)(F)F)C1)N(Cc1cn2ccc(-c3nnc(C(F)F)o3)cc2n1)c1cccc(F)c1 = 274
• O=C(C1CCN(C2CCCCC2)CC1)N(Cc1cn2ccc(-c3nnc(C(F)F)o3)cc2n1)c1cccc(F)c1 = 335
• CCN1CCC(C(=O)N(Cc2cn3ccc(-c4nnc(C(F)F)o4)cc3n2)c2ccccc2)CC1 = 141
• CC(=O)N1CCN(C(=O)N(Cc2cn3ccc(-c4nnc(C(F)F)o4)cc3n2)c2ccccc2)CC1 = 421
• CN(C)C(=O)N1CCN(C(=O)N(Cc2cn3ccc(-c4nnc(C(F)F)o4)cc3n2)c2cccc(F)c2)CC1 = 360
• O=C(C1CCC1)N1CCN(C(=O)N(Cc2cn3ccc(-c4nnc(C(F)F)o4)cc3n2)c2cccc(F)c2)CC1 = 185

###

List of IC50 values.
subjectOfTest: human recombinant HDAC6 (Homo sapiens)
assayOverview: In vitro HDAC enzyme activity inhibition assay, HDAC6 (HDAC Fluorimetric Drug Discovery Kit)
setupConditions: human recombinant HDAC6, same protocol as the HDAC1 test
property: IC50 (µM)

* CN1CCC(C(=O)N(Cc2cn3ccc(-c4nnc(C(F)F)o4)cc3n2)c2ccccc2)CC1 | 0.0676
* O=C(C1CN(C2CCC(F)(F)CC2)C1)N(Cc1cn2ccc(-c3nnc(C(F)F)o3)cc2n1)c1ccccc1 | 0.254
* CC(C)(C)OC(=O)N1CCN(C(=O)N(Cc2cn3ccc(-c4nnc(C(F)(F)F)o4)cc3n2)c2cccc(F)c2)CC1 | 2.36
* O=C(CO)N1CC(C(=O)N(Cc2cn3ccc(-c4nnc(C(F)F)o4)cc3n2)c2cccc(F)c2)C1 | 0.25

###

subjectOfTest: human recombinant HDAC6 (Homo sapiens, UniProt Q9UBN7)
assayOverview: In vitro HDAC enzyme activity inhibition assay, HDAC6 (HDAC Fluorimetric Drug Discovery Kit)
setupConditions: human recombinant HDAC6, same protocol as the HDAC1 test
property: IC50 (nM)

- CN(C)C(=O)N1CC(C(=O)N(Cc2cn3ccc(-c4nnc(C(F)F)o4)cc3n2)c2ccccc2)C1: 381
- O=C(C1CCC1)N1CCN(C(=O)N(Cc2cn3ccc(-c4nnc(C(F)F)o4)cc3n2)c2cccc(F)c2)CC1: 270
- O=C(C1CN(c2ccccn2)C1)N(Cc1cn2ccc(-c3nnc(C(F)F)o3)cc2n1)c1cccc(F)c1: 138
- CN1CC2(C1)CN(C(=O)N(Cc1cn3ccc(-c4nnc(C(F)F)o4)cc3n1)c1ccccc1)C2: 98
- CCC(=O)N1CCN(C(=O)N(Cc2cn3ccc(-c4nnc(C(F)F)o4)cc3n2)c2cccc(F)c2)CC1: 195
- CCC(=O)N1CCN(C(=O)N(Cc2cn3ccc(-c4nnc(C(F)F)o4)cc3n2)c2ccccc2)CC1: 259
- O=C(N1CCN(C2COC2)CC1)N(Cc1cn2ccc(-c3nnc(C(F)F)o3)cc2n1)c1ccccc1: 114

###

subjectOfTest: human recombinant HDAC6 (Homo sapiens)
Construct: purchased Calbiochem Inc. 382180
Sequence (Q9UBN7 1-1215): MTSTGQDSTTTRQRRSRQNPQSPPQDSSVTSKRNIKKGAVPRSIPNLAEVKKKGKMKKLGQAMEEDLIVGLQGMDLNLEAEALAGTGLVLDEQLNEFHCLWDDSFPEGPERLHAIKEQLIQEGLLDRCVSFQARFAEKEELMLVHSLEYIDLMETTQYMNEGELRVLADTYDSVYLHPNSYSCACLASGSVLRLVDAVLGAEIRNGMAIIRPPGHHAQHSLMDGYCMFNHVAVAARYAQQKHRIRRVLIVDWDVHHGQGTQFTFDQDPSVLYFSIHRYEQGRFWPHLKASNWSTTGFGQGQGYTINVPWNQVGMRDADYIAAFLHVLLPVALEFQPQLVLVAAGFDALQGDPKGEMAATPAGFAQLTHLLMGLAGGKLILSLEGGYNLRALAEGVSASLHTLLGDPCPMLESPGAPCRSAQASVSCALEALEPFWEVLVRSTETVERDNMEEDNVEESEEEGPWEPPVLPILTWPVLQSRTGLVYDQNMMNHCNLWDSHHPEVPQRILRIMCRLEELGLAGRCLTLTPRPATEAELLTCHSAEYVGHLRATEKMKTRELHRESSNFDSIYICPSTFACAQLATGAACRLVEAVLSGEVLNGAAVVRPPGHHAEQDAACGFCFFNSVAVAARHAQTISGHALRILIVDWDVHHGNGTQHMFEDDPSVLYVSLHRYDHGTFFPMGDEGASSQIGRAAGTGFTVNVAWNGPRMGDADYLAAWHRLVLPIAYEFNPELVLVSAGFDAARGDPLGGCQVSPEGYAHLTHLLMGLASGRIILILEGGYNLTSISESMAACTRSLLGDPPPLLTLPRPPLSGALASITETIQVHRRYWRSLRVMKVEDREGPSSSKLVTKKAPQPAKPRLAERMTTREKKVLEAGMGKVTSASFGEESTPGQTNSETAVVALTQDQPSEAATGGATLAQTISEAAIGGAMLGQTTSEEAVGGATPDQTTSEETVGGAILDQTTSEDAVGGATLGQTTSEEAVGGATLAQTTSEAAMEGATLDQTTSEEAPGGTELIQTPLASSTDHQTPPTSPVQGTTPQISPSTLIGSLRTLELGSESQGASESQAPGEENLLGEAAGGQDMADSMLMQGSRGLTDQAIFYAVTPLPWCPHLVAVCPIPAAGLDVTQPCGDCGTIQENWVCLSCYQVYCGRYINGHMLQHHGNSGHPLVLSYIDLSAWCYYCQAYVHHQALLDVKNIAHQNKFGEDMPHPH
assayOverview: In vitro HDAC enzyme activity inhibition assay, HDAC6 (HDAC Fluorimetric Drug Discovery Kit)
Type: biochemical
setupConditions: HDAC6 versus HDAC1
List of HDAC6 Selectivity (fold) values.
property: HDAC6 Selectivity (fold)

* O=C(C1CCN(C2CCCCC2)CC1)N(Cc1cn2ccc(-c3nnc(C(F)F)o3)cc2n1)c1ccccc1 [Compound 4119] | 124
* O=C(N1CCN(c2ncccn2)CC1)N(Cc1cn2ccc(-c3nnc(C(F)F)o3)cc2n1)c1ccccc1 [Compound 4049] | 539
* FC(F)c1nnc(-c2ccn3cc(CNC45CC6CC(CC(C6)C4)C5)nc3c2)o1 [Compound 3677] | 196
* CCC(=O)N1CCN(C(=O)N(Cc2cn3ccc(-c4nnc(C(F)F)o4)cc3n2)c2ccccc2)CC1 [Compound 4041] | 193
* Fc1cccc(NCc2cn3ccc(-c4nnc(C(F)F)o4)cc3n2)c1 [Compound 3670] | 226
* O=C(C1CCC1)N1CCC(C(=O)N(Cc2cn3ccc(-c4nnc(C(F)F)o4)cc3n2)c2ccccc2)CC1 [Compound 4125] | 152
* Fc1ccc(Cc2cn3ccc(-c4nnc(C(F)F)o4)cc3n2)cc1 [Compound 3586] | 151
* CC(C)N1CCC(C(=O)N(Cc2cn3ccc(-c4nnc(C(F)F)o4)cc3n2)c2cccc(F)c2)CC1 [Compound 4139] | 403

###

subjectOfTest: human recombinant HDAC6 (Homo sapiens)
Construct: purchased Calbiochem Inc. 382180
Sequence (Q9UBN7 1-1215): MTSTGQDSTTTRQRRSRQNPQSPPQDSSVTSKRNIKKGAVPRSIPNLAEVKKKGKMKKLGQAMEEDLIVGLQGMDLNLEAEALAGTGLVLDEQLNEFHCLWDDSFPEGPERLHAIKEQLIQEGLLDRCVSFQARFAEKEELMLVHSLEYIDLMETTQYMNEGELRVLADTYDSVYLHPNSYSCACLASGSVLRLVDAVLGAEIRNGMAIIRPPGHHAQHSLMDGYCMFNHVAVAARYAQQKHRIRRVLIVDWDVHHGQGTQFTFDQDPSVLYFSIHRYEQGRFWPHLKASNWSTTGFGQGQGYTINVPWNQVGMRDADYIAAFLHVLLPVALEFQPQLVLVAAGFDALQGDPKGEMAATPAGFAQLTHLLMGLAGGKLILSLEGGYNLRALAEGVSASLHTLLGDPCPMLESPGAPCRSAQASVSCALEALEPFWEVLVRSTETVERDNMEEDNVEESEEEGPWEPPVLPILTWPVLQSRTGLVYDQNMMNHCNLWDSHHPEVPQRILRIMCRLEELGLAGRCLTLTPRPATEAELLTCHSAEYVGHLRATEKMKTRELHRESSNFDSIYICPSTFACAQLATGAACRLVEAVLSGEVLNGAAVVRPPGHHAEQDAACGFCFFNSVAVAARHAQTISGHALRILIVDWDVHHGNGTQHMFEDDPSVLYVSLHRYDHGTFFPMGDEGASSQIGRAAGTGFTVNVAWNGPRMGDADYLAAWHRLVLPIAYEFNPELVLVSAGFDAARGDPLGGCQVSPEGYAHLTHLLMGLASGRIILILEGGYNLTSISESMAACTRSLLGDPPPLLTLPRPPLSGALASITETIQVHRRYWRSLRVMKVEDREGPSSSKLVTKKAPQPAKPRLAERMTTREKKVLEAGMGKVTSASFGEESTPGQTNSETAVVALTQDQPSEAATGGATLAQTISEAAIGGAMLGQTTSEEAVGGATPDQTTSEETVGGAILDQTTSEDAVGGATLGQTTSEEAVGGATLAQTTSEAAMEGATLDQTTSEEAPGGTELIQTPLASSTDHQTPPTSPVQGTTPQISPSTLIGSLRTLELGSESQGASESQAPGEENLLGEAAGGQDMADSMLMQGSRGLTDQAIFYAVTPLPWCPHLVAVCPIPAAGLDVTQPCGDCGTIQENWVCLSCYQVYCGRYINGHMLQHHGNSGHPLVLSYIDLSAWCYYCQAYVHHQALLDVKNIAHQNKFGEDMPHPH
assayOverview: In vitro HDAC enzyme activity inhibition assay, HDAC6 (HDAC Fluorimetric Drug Discovery Kit)
Format: biochemical
setupConditions: HDAC6 versus HDAC1
Criterion: HDAC6 Selectivity (fold) meeting or surpassing 400 fold. Met: yes. Not met: no.

• CS(=O)(=O)c1ccc(Cc2cn3ccc(-c4nnc(C(F)F)o4)cc3n2)cc1 = no
• CN1CCN(C(=O)N(Cc2cn3ccc(-c4nnc(C(F)F)o4)cc3n2)c2ccccc2)CC1 = yes
• Fc1ccc(NCc2cn3ccc(-c4nnc(C(F)F)o4)cc3n2)cc1Cl = yes
• CC(=O)c1ccc(Cc2cn3ccc(-c4nnc(C(F)F)o4)cc3n2)cc1 = no
• O=C(N1CCN(C2CC3(COC3)C2)CC1)N(Cc1cn2ccc(-c3nnc(C(F)F)o3)cc2n1)c1cccc(F)c1 = no
• CC(C)N1CCN(C(=O)N(Cc2cn3ccc(-c4nnc(C(F)F)o4)cc3n2)c2ccccc2)CC1 = yes
• O=C(N1CCN(C(=O)C(F)(F)F)CC1)N(Cc1cn2ccc(-c3nnc(C(F)F)o3)cc2n1)c1cccc(F)c1 = no
